These measurements were taken from patent US9315489B2.

Item-by-item account of concentration at 5 min
# test: Compound concentration in mouse brain and plasma
# Type: in vivo
# run parameters: mouse, plasma; 5 minutes after a single intravenous injection of 1 mg/kg in mice; read-out: Mean blood (drug concentration in plasma)
readout: concentration at 5 min (nM)

{"columns": ["molecule", "readout", "observed value"],
 "data": [
  ["COc1ccc(C(=O)Nc2ccc(OC(F)(F)F)cc2)cc1-c1cncnc1 [Example 30]", "concentration at 5 min", 5390],
  ["Cc1ccc(C(=O)Nc2ccc(OC(F)(F)F)cc2)cc1-c1cccnc1 [Example 15]", "concentration at 5 min", 2140],
  ["O=C(Nc1ccc(SC(F)(F)F)cc1)c1cccc(-c2cncnc2)c1 [Example 11]", "concentration at 5 min", 1470],
  ["O=C(Nc1ccc(OC(F)(F)Cl)cc1)c1cccc(-c2cncnc2)c1 [Example 10]", "concentration at 5 min", 1260],
  ["COc1ncc(-c2cc(C(=O)Nc3ccc(OC(F)(F)F)cc3)ccc2C)cn1 [Example 13]", "concentration at 5 min", 3090],
  ["Cc1ccc(C(=O)Nc2ccc(OC(F)(F)F)cc2)cc1-c1cncs1 [Example 17]", "concentration at 5 min", 3030],
  ["O=C(Nc1ccc(OC(F)(F)F)cc1)c1cncc(-c2cccnc2)c1 [Example 74]", "concentration at 5 min", 2580],
  ["O=C(Nc1ccc(OC(F)(F)F)cc1)c1cccc(-c2cncnc2)c1 [Example 1]", "concentration at 5 min", 1160]
]}

---

# assayed target: ABL1 (64-515) (Homo sapiens (Human))
# Sequence (P00519 64-515): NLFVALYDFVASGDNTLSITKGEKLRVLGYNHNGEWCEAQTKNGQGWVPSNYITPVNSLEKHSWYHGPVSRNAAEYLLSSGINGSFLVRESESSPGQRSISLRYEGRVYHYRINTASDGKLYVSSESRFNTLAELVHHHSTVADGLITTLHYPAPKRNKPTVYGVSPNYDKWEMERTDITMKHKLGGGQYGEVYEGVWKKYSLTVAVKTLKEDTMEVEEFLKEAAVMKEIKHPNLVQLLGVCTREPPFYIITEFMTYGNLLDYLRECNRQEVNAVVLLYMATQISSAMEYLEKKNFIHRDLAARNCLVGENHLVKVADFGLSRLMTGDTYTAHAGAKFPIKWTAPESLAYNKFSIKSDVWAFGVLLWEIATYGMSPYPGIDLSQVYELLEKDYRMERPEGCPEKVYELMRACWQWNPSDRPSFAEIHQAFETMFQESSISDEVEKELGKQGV
# test: Radio ABL1 (64-515) assay (radiometric filter-binding)
# Type: biochemical
pIC50: −log10 of the molar value.

{"columns": ["molecule", "assayed target", "result modifier", "pIC50"],
 "data": [
  ["O=C(Nc1ccc(OC(F)(F)F)cc1)c1cccc(-c2ccc(CN3CCCC3)s2)c1 [Example 7]", "ABL1 (64-515) (Homo sapiens (Human))", ">", 8.52],
  ["COC(=O)c1ccc(C(=O)Nc2ccc(OC(F)(F)F)cc2)cc1-c1cncnc1 [Example 68]", "ABL1 (64-515) (Homo sapiens (Human))", ">", 8.52],
  ["O=C(Nc1ccc(OC(F)(F)F)cc1)c1cncc(-c2cnn(CCO)c2)c1 [Example 64]", "ABL1 (64-515) (Homo sapiens (Human))", "=", 6.94],
  ["O=C(Nc1ccc(OC(F)(F)F)cc1)c1cccc(-c2cnc(OCCO)nc2)c1 [Example 2]", "ABL1 (64-515) (Homo sapiens (Human))", "=", 8.19],
  ["O=C(Nc1ccc(OC(F)(F)F)cc1)c1cnc(OCCNCCO)c(-c2cncnc2)c1 [Example 50]", "ABL1 (64-515) (Homo sapiens (Human))", "=", 8.38],
  ["O=C(Nc1ccc(OC(F)(F)F)cc1)c1ccc(Cl)c(-c2ccncc2)c1 [Example 27]", "ABL1 (64-515) (Homo sapiens (Human))", "=", 7.51],
  ["O=C(Nc1ccc(OC(F)(F)F)cc1)c1cnc(OC2CCOCC2)c(-c2cncnc2)c1 [Example 53]", "ABL1 (64-515) (Homo sapiens (Human))", "=", 8.05],
  ["COc1ccc(C(=O)Nc2ccc(OC(F)(F)F)cc2)cc1-c1ccc2c(c1)OCO2 [Example 35]", "ABL1 (64-515) (Homo sapiens (Human))", "=", 8.00],
  ["Nc1cnc(-c2cccc(C(=O)Nc3ccc(OC(F)(F)F)cc3)c2)cn1 [Example 4]", "ABL1 (64-515) (Homo sapiens (Human))", "=", 8.15],
  ["O=C(Nc1ccc(OC(F)(F)F)cc1)c1ccc(Cl)c(-c2cncnc2)c1 [Example 24]", "ABL1 (64-515) (Homo sapiens (Human))", ">", 8.52],
  ["O=C(Nc1ccc(OC(F)(F)F)cc1)c1cnc(C2=CCOCC2)c(-c2cncnc2)c1 [Example 44]", "ABL1 (64-515) (Homo sapiens (Human))", "=", 8.22],
  ["O=C(Nc1ccc(OC(F)(F)F)cc1)c1cccc(-n2ccnc2)c1 [Example 8]", "ABL1 (64-515) (Homo sapiens (Human))", "=", 8.72],
  ["COc1ncc(-c2cc(C(=O)Nc3ccc(OC(F)(F)F)cc3)ccn2)cn1 [Example 69]", "ABL1 (64-515) (Homo sapiens (Human))", ">", 8.52],
  ["COc1ncc(-c2cc(C(=O)Nc3ccc(OC(F)(F)F)cc3)ccc2Cl)cn1 [Example 25]", "ABL1 (64-515) (Homo sapiens (Human))", "=", 8.09],
  ["Cc1ccc(C(=O)Nc2ccc(OC(F)(F)F)cc2)cc1-c1cncs1 [Example 17]", "ABL1 (64-515) (Homo sapiens (Human))", "=", 8.52],
  ["COc1ccc(C(=O)Nc2ccc(OC(F)(F)F)cc2)cc1-c1cccnc1 [Example 31]", "ABL1 (64-515) (Homo sapiens (Human))", "=", 8.49],
  ["N#Cc1cncc(-c2cccc(C(=O)Nc3ccc(OC(F)(F)F)cc3)c2)c1 [Example 3]", "ABL1 (64-515) (Homo sapiens (Human))", "=", 8.41],
  ["COc1ccc(C(=O)Nc2ccc(OC(F)(F)F)cc2)cc1-c1ccc(C(C)=O)s1 [Example 36]", "ABL1 (64-515) (Homo sapiens (Human))", "=", 8.47]
]}
